targetEntity: Gal(b1-2)Gal
procedureDetails: glycan array binding signal (z-score within array); higher = stronger binding
conditionDetails: glycan notation: IUPAC condensed, linker removed
Many of the other results were omitted from the sample, so the strongest signals are more common in it than they were.
assayEndpoint: glycan array binding signal (z-score)

{"columns": ["binder", "assayEndpoint", "resultValue"],
 "data": [
  ["SSP1 (Sclerotinia sclerotiorum), XP_001584968 (protein) MGSSHHHHHHSSGLVPRGSHMSLLTTELACTSAPDQVLHLFFQDGQNILEARSPDGGNVWTTQDTIIAKDGDYNGSSMTCYYVDKDANFDNQPSIHLLYMNKDKQLTEKVKRMKGDNPIWEDAKVPDEVRKGPEQYSKLTSGSFNQGTGWNPNGSQWAYFSASKDGKMGIVEIRRTPKDPWHTETILEEKWGDELPGTALACVIGNGKIRVFLQHHDYSIILYENQNNTWHDRGTFIPKDKVQATTPLACTMTKDGSVHLFYVSKSNKIIHCTDGKKEEELINFFPGSKLGATSVENKITLFFRNLNPVNEVGTLENENGSWKHGTTVIPA", "glycan array binding signal (z-score)", 0.5],
  ["Na-CTL-1 (Necator americanus) (protein) MQRSFLLLLVVLAGAWAVNTTIPLKLMGGFTPMKYQCVGRVSDIWADVLFLIESSDMITKSGFRQVIAFITATTKKMTIGQDEKQTRVGFITYGEEAKLIYDLDHWRSTEKLSDLVQKIPYVKSSGTNIAAAIALANKVFNSPTHRPNVPKVMVIVANGLKKGSQNPIPVATAFKDFGGIIITIEYTQYDNIQVPILKKIASEGYNIRSNDEDFSVRTLTNMLLQANCFCPDHYVPFRVNNPEFGCFVTAKIPSMWRDAAEMCRAVEEGKLVKVENEEKAAFIMKLVGPKKEAWIGLRYYGNKFQWTDGTKLNADDFNLWPEDIKELNGPHCVSMYQDQKDKKYYWRAGKCLEDMRYVCEVQPCSASNYCSEPVFMYRQKHRALLPAPPPPPN", "glycan array binding signal (z-score)", -0.582],
  ["LngA (Escherichia coli) (protein) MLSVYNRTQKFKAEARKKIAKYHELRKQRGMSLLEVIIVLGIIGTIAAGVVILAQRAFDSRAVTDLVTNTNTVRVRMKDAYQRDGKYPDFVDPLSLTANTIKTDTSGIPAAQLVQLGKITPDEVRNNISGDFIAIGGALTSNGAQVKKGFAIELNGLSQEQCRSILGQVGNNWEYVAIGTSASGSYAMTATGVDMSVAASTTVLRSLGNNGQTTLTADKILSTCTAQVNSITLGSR", "glycan array binding signal (z-score)", 2.94],
  ["Clone646PsrP (Streptococcus pneumoniae) (protein) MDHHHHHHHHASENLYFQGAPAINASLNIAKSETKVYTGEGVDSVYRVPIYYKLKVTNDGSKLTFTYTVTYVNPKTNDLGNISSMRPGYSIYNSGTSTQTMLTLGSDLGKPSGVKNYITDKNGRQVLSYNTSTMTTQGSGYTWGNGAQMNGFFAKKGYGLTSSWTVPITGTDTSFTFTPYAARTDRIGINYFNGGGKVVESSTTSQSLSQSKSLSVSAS", "glycan array binding signal (z-score)", 2.94],
  ["Tp0751, 83732 (protein) MSYYHHHHHHLESTSLYKKAGFQHGHVPPRRIPPHDTFGALPTAALPSNARDTAAHPSDTADNTSGSSTTTDPRSHGNAPPAPVGGAAQTHTQPPVQTAMRIALWNRATHGEQGALQHLLAGLWIQTEISPNSGDIHPLLFFDREHAEITFSRASVQEIFLVDSAHTHRKTVSFLTRNTAISSIRRRLEVTFESHEVIHVRAVEDVARLKIGSTSMWDGQYTRYHAGPASAPSP", "glycan array binding signal (z-score)", 2.31]
]}

Source: the supplement of paper PMC8728848
